Each record here notes measured CC50.
Test system: LLC-MK2 cells
Experiment: Cytotoxicity MTT assay (0.1–1000 µM), CC50
Type: cell-based, Macaca mulatta
Details: Table S2, range 0.1-1000 µM, LLC-MK2; read-out: Cell line (CC50 M) LLC-MK2
// return numeric value only (unit: µM, not printed)

# example entries with known answers
# molecule, CC50 [µM]
measured = [
    ("COc1cccc(Cn2c[n+](Cc3ccccc3)c(C)c2C)c1 [1c[PF6]]", 75.3),
    ("Cc1c(C)[n+](Cc2ccccc2)cn1Cc1ccccc1 [1a[PF6]]", 32.7),
]

Query :: GET /values?readout=CC50&item= Cc1c(C)[n+](Cc2ccccc2)cn1Cc1ccccc1 [Compound 1a, lepidiline A, reference compound]
Result :: 67.7

Query :: GET /values?readout=CC50&item= COc1cccc(Cn2c[n+](Cc3ccccc3)c(C)c2C)c1 [Compound 1c, lepidiline C, reference compound]
Result :: 28.3

---

Test: Cytotoxicity screening at 10 µM (MTT)
Type: cell-based, Human
Settings: human, MRC-5 cells, read-out: Cell line (viability %) MRC-5
measured.quantity: viability at 48 h, 10 µM (%)
// return numeric value only (unit: %, not printed)

# compound, measured.quantity, measured.result
measured = [
    ("c1ccc(Cn2c[n+](Cc3ccccc3)c(-c3ccccc3)c2-c2ccccc2)cc1 [9b[PF6]]", "viability at 48 h, 10 µM", 12.8),
    ("COc1cccc(Cn2c(-c3ccccc3)c(-c3ccccc3)n(Cc3ccccc3)c2=S)c1 [Compound 10d]", "viability at 48 h, 10 µM", 96.8),
]

Query :: GET /values?readout=viability at 48 h, 10 µM&item= COc1cccc(Cn2c(C)c(C)n(Cc3ccccc3)c2=S)c1 [Compound 10b]
Result :: 100

---

System: A549 cells
Test: Cytotoxicity MTT assay (0.1–1000 µM), CC50
Format: cell-based, Human
Details: 48 h, read-out: CC50 Cancer Cell Lines A549
measured.quantity: CC50 (µM)
// return numeric value only (unit: µM, not printed)

Query :: GET /values?readout=CC50&item= Cc1c(C)[n+](Cc2cccc(F)c2)cn1Cc1ccccc1 [1e[PF6]]
Result :: 38

---

Test system: MRC-5 cells
Assay: Cytotoxicity MTT assay (0.1–1000 µM), CC50
Format: cell-based, Human
Settings: MRC-5, MTT, 48 h; read-out: CC50 Normal Cell Lines MRC-5
measured.quantity: CC50 (µM)
// return numeric value only (unit: µM, not printed)

# molecule, target.entity, measured.quantity, measured.result
rows = [
    ("Cc1c(C)[n+](Cc2cccc(F)c2)cn1Cc1ccccc1.[Cl-] [Compound 1e]", "MRC-5 cells", "CC50", 52.7),
]

Query :: GET /values?readout=CC50&item= Cc1c(C)[n+](Cc2cccc(F)c2)cn1Cc1ccccc1 [1e[PF6]]
Result :: 150

---

Experiment: Cytotoxicity MTT assay (0.1–1000 µM), CC50
Type: cell-based, Cercopithecus aethiops
Conditions: Cercopithecus aethiops, Vero cells, read-out: CC50 Normal Cell Lines Vero
Each record here notes measured CC50 at 48 h.
// return numeric value only (unit: µM, not printed)

# example entries with known answers
# compound.structure, CC50 at 48 h (µM)
measured = [
    ("Cc1c(C)[n+](OCc2ccccc2)cn1Cc1ccc(C(F)(F)F)cc1.[Br-]", 229),
    ("Cc1c(C)[n+](OCc2ccccc2)cn1Cc1cccc(OC(F)(F)F)c1.[Br-]", 143),
    ("Cc1c(C)[n+](OCc2ccccc2)cn1Cc1ccccc1C(F)(F)F.[Br-]", 53.7),
    ("Cc1c(C)[n+](Cc2cccc(C(F)(F)F)c2)cn1Cc1ccccc1.[Cl-]", 0.107),
    ("Cc1c(C)[n+](OCc2ccccc2)cn1Cc1cccc(F)c1.[Br-]", 250),
]

Next item in the queue.
Query :: GET /values?readout=CC50 at 48 h&item= Cc1c(C)[n+](Cc2cccc(OC(F)(F)F)c2)cn1Cc1ccccc1.[Cl-]
Result :: 38

---

Each record here notes measured CC50.
Tested on: LLC-MK2 cells
Experiment: Cytotoxicity MTT assay (0.1–1000 µM), CC50
Format: cell-based, Macaca mulatta
Details: LLC-MK2, MTT, 48 h; read-out: CC50 Normal Cell Lines LLC-MK2
// return numeric value only (unit: µM, not printed)

# example entries with known answers
# compound, unit.abbreviation, CC50
measured = [
    ("FC(F)(F)c1cccc(C[n+]2cn(Cc3ccccc3)c(-c3ccccc3)c2-c2ccccc2)c1.[Br-]", "µM", 0.04),
    ("Cc1c(C)[n+](Cc2cccc(F)c2)cn1Cc1ccccc1 [1e[PF6]]", "µM", 150),
]

Query :: Lab request: please report CC50 under test system LLC-MK2 cells for Cc1c(C)[n+](Cc2cccc(F)c2)cn1Cc1ccccc1.[Cl-]
Result :: 53.5

---

System: NCTC clone 929 cells
Experiment: Cytotoxicity MTT assay (0.1–1000 µM), CC50
Type: cell-based, Mus musculus
Conditions: NCTC clone 929, MTT, 48 h; read-out: CC50 Normal Cell Lines NCTC Clone 929
measured.quantity: CC50 (µM)
// return numeric value only (unit: µM, not printed)

Query :: Lab request: please report CC50 under test system NCTC clone 929 cells for Cc1c(C)[n+](Cc2cccc(F)c2)cn1Cc1ccccc1 [1e[PF6]]
Result :: 148

---

Each record here notes measured IC50.
Tested on: Human adenovirus 5 (AdV5)
Assay: Antiviral activity assay (0.1–1000 µM), IC50
Format: cell-based
Conditions: Human mastadenovirus C; Table S4, range 0.1-1000 µM, AdV5; read-out: IC50 (M) AdV5

# molecule, IC50
measured = [
    ("COc1cccc(Cn2c(-c3ccccc3)c(-c3ccccc3)n(Cc3ccccc3)c2=S)c1 [Compound 10d]", "> 0.000318 M"),
]

Next item in the queue.
Query :: GET /values?readout=IC50&item= Cc1c(C)n(Cc2ccccc2)c(=S)n1Cc1ccccc1 [Compound 10a]
Result :: > 1.69e-05 M

---

Test: Cytotoxicity screening at 10 µM (MTT)
Assay type: cell-based, Human
Conditions: human, MRC-5 cells, read-out: Cell line (viability %) MRC-5
measured.quantity: viability at 48 h, 10 µM (%)
// return numeric value only (unit: %, not printed)

# molecule, viability at 48 h, 10 µM / %
rows = [
    ("S=c1n(Cc2ccccc2)c(-c2ccccc2)c(-c2ccccc2)n1Cc1ccccc1 [Compound 10c]", 73.8),
    ("Cc1c(C)[n+](Cc2ccccc2)cn1Cc1ccccc1 [Compound 1a, lepidiline A, reference compound]", 90.2),
    ("c1c[n+](C23CC4CC(CC(C4)C2)C3)cn1C12CC3CC(CC(C3)C1)C2 [Compound 2a, 1,3-diadamantyl imidazolium bromide, reference compound]", 73.7),
    ("c1c[n+](OC23CC4CC(CC(C4)C2)C3)cn1OC12CC3CC(CC(C3)C1)C2 [Compound 2b]", 12.7),
    ("COc1cccc(Cn2c[n+](Cc3ccccc3)c(C)c2C)c1 [Compound 1c, lepidiline C, reference compound]", 76.7),
]

Query :: GET /values?readout=viability at 48 h, 10 µM&item= Cc1c(C)n(Cc2ccccc2)c(=S)n1Cc1ccccc1 [Compound 10a]
Result :: 74.3

Query :: GET /values?readout=viability at 48 h, 10 µM&item= COc1cccc(Cn2c[n+](Cc3ccccc3)c(-c3ccccc3)c2-c2ccccc2)c1 [9c[PF6]]
Result :: 12.6

---

Assay: Cytotoxicity MTT assay (0.1–1000 µM), CC50
Type: cell-based, Human
Conditions: human, HeLa cells, MTT, 48 h, read-out: CC50 Cancer Cell Lines HeLa
measured.quantity: CC50 at 48 h (µM)
// return numeric value only (unit: µM, not printed)

# example entries with known answers
# compound.structure, unit.abbreviation, measured.result
rows = [
    ("Cc1c(C)[n+](OCc2ccccc2)cn1Cc1ccccc1C(F)(F)F.[Br-]", "µM", 16),
    ("Cc1c(C)[n+](OCc2ccccc2)cn1Cc1cccc(OC(F)(F)F)c1.[Br-]", "µM", 7.33),
    ("FC(F)(F)c1cccc(C[n+]2cn(Cc3ccccc3)c(-c3ccccc3)c2-c2ccccc2)c1.[Br-]", "µM", 0.019),
    ("Cc1c(C)[n+](OCc2ccccc2)cn1Cc1ccc(C(F)(F)F)cc1.[Br-]", "µM", 5.5),
    ("Cc1c(C)[n+](Cc2cccc(OC(F)(F)F)c2)cn1Cc1ccccc1.[Cl-]", "µM", 0.039),
]

Query :: GET /values?readout=CC50 at 48 h&item= Cc1c(C)[n+](OCc2ccccc2)cn1Cc1cccc(F)c1.[Br-]
Result :: 20

Query :: GET /values?readout=CC50 at 48 h&item= Cc1c(C)[n+](Cc2cccc(C(F)(F)F)c2)cn1Cc1ccccc1.[Cl-]
Result :: 0.053
